test: Binding affinity to Nickel cation assessed as accounting ratio by measuring total compound detected/total compound adsorbed at 2.55 umol by immobilized metal-ion affinity chromatography; conditions: dose 2.55 µmol

| smiles.text | Ratio |
| --- | --- |
| O=C(O)c1cc(/N=N/c2ccc(S(=O)(=O)Nc3ccccn3)cc2)ccc1O | 0.89 |
| CC(=O)Nc1ccc(C(=O)Nc2ccccc2N)cc1 | 1 |
| O=C(CCCCCCC(=O)Nc1ccccc1)NO | 1.14 |
| Nc1ccc(C(=O)O)c(O)c1 | 0.83 |
| Cc1ccc(Cl)c(Nc2ccccc2C(=O)O)c1Cl | 0.96 |
| O=C(/C=C/c1cccc(S(=O)(=O)Nc2ccccc2)c1)NO | 1.08 |

###

experiment: Binding affinity to Gallium ion assessed as performance ratio ratio by measuring product of accounting ratio and retention ratio at 2.55 umol by immobilized metal-ion affinity chromatography; settings: dose 2.55 µmol
Lab note: compare Ratio against 0.02. Equal or greater, write condition met. Smaller, write condition not met.

| smiles.text | class.assignment |
| --- | --- |
| C[C@H](N[C@@H](CCc1ccccc1)C(=O)O)C(=O)N1CCC[C@H]1C(=O)O | condition not met |
| O=C(N[C@H]1CCS[C@H]2CCC[C@@H](C(=O)O)N2C1=O)[C@@H](S)Cc1ccccc1 | condition not met |
| Nc1ccc(C(=O)O)c(O)c1 | condition met |
| Cc1ccc(Cl)c(Nc2ccccc2C(=O)O)c1Cl | condition not met |
| O=C(O)c1cc(/N=N/c2ccc(S(=O)(=O)Nc3ccccn3)cc2)ccc1O | condition met |
| O=c1cccccc1O | condition not met |
| O=C(/C=C/c1cccc(S(=O)(=O)Nc2ccccc2)c1)NO | condition met |
| CC(=O)Nc1ccc(C(=O)Nc2ccccc2N)cc1 | condition not met |
| CC1(C)Cc2c(-c3ccccc3)c(-c3ccc(Cl)cc3)c(CC(=O)O)n2C1 | condition met |
| C[C@H](CS)C(=O)N1CCC[C@H]1C(=O)O | condition not met |

###

The entries below come with measured Ratio values attached.
assay: Binding affinity to cupric ion assessed as accounting ratio by measuring total compound detected/total compound adsorbed at 2.55 umol by immobilized metal-ion affinity chromatography; details: dose 2.55 µmol
observation.type: Ratio

| smiles.text | value.measured |
| --- | --- |
| O=C(/C=C/c1cccc(S(=O)(=O)Nc2ccccc2)c1)NO | 0.13 |
| O=C(N[C@H]1CCS[C@H]2CCC[C@@H](C(=O)O)N2C1=O)[C@@H](S)Cc1ccccc1 | 0 |
| NCCCC[C@H](N[C@@H](CCc1ccccc1)C(=O)O)C(=O)N1CCC[C@H]1C(=O)O | 0.88 |
| CC(=O)Nc1ccc(C(=O)Nc2ccccc2N)cc1 | 0.99 |
| Nc1ccc(C(=O)O)c(O)c1 | 0.87 |

###

assay: Binding affinity to Nickel cation assessed as retention ratio by measuring compound detected in elution fraction/total compound detected at 2.55 umol by immobilized metal-ion affinity chromatography; conditions: dose 2.55 µmol
The entries below come with measured Ratio values attached.

| smiles.text | Ratio |
| --- | --- |
| O=c1cccccc1O | 1 |
| O=C(CCCCCCC(=O)Nc1ccccc1)NO | 1 |
| C[C@H](N[C@@H](CCc1ccccc1)C(=O)O)C(=O)N1CCC[C@H]1C(=O)O | 0 |
| O=C(/C=C/c1cccc(S(=O)(=O)Nc2ccccc2)c1)NO | 1 |
| CC(=O)Nc1ccc(C(=O)Nc2ccccc2N)cc1 | 0.01 |
| CC1(C)Cc2c(-c3ccccc3)c(-c3ccc(Cl)cc3)c(CC(=O)O)n2C1 | 0.03 |
